B1: ANKRD17 (parent)
chain: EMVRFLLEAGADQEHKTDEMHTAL

- Variants of: B1
- Protocol Summary: protein stability index of a GFP-peptide fusion (GPS, HEK-293T) (PSI 1-6); higher = more stable;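 further: lentivirally expressed fusions sorted by FACS into six bins by GFP to DsRed ratio, PSI derived from sequencing read proportions per bin multiplied by bin number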
- Measurement Setup: c terminus: a fixed tail appended
Using protein stability index as the sorting value, the categories are range A = under 2, range B = from 2 up to 3, range C = 3 and over

Completed entries (count: 2):
Sequence Variant: E14C
Class Name: range A
//
Sequence Variant: A9V
Class Name: range B

Dear colleague, I would appreciate it if you could identify the bin for `L7H` and reply at your convenience.
range C

Dear colleague, I would appreciate it if you could identify the bin for `E8C` and reply at your convenience.
range B
